- TARGET_OR_TEST_SYSTEM: FGFR1 (UniProt P11362)
- Sequence (P11362 whole entry, looked up): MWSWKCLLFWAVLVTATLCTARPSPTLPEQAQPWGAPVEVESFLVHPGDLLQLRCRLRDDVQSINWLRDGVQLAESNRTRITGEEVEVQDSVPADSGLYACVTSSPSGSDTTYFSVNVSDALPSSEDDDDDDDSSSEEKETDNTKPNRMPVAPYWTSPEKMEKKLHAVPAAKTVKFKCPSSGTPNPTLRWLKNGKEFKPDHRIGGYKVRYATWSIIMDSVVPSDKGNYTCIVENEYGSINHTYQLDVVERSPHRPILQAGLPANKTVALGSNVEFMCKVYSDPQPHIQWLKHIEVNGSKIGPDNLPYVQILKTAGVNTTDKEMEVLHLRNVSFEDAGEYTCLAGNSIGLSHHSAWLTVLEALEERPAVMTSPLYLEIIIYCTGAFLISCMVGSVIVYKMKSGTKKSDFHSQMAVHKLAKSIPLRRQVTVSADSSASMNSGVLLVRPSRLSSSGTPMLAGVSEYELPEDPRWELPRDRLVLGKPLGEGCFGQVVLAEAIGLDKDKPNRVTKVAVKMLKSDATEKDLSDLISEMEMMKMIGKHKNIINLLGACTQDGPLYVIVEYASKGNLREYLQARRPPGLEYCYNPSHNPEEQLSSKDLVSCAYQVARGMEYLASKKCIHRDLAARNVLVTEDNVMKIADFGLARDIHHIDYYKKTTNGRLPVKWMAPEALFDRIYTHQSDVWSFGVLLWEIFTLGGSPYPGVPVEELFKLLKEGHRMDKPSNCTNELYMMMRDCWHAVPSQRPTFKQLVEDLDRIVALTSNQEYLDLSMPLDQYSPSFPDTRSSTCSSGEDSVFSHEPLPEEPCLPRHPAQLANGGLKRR
- METHOD_SUMMARY: phosphorylation enrichment, bacterial display (enrichment ratio); higher = better substrate or ligand; peptides without Tyr show the background;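 also: 11-residue human phosphosite peptides and single-mutation variants displayed on the E. coli surface, counted by deep sequencing, each peptide's frequency after selection divided by its frequency in the unselected input library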;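 also: frequency after pTyr selection over input frequency; kinase dosed for 20-30% of maximal phosphorylation in three min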
For each record, write down the corresponding phosphorylation enrichment.
Number only, no unit.

// sequence ERQIRYLNHQL [CEP152_Y268] , assay FGFR1 (UniProt P11362), phosphorylation enrichment value: 0.412

phosphorylation enrichment for FGFR1 (UniProt P11362) with input QMVDMYASSYM [AVPR2_Y124_G122D] equals 0.579

FGFR1 (UniProt P11362) assay, sequence SDVSSYLEGQA [GCG_Y110] , recorded phosphorylation enrichment = 0.456

Record EVDGLYREAPI [MYL12B_Y143_E141G] ; system FGFR1 (UniProt P11362); phosphorylation enrichment = 0.629

// returns phosphorylation enrichment for TNIKRYHIAKG [HARS1_Y150_V155G] with FGFR1 (UniProt P11362); value = 0.351

Entry MSSLPYMKVIF [SLC4A11_Y853_M856V] under FGFR1 (UniProt P11362) had phosphorylation enrichment of 0.764

Here APSHAYHRGVL [ANO1_Y981_G983R] was tested on FGFR1 (UniProt P11362), and its phosphorylation enrichment came to 0.395

Kindly note: FGFR1 (UniProt P11362), VAMELYVFGGV [GAN_Y471] , phosphorylation enrichment value reported: 0.513

Result for PPSGEYFGQCG [TRIP6_Y275] , tested on FGFR1 (UniProt P11362), phosphorylation enrichment: 1.23

phosphorylation enrichment value, target or system FGFR1 (UniProt P11362), for TKYVAYIESQG [KDM4B_Y34_N29T] : 0.541

Reported FGFR1 (UniProt P11362) phosphorylation enrichment for item QNTGFYFDLFG [PTPN11_Y62_D61Y_YF] was 3.04

Item REIIAYQPFGK [PRKCG_Y529_P524R_YF] was tested on FGFR1 (UniProt P11362); the reported phosphorylation enrichment is 0.305

Bench note, FGFR1 (UniProt P11362): entry RLLRGYDQYAY [HLA-B_Y137_H137Y] , its phosphorylation enrichment = 0.548

The value of phosphorylation enrichment recorded for RGSQQYRALPV [TUBB8_Y281_T285P] when tested on FGFR1 (UniProt P11362) reads 0.803

Value (phosphorylation enrichment, FGFR1 (UniProt P11362)) for record PSDSGYSFETI [MAP1B_Y1921_YF] = 0.633

Tested on FGFR1 (UniProt P11362): SLNAVYPRAGR [OAS3_Y376_S381R] . Observed phosphorylation enrichment: 0.415

Summary line: MSFDRYMAVCH [OR2A5_Y123_I126V_YF] , FGFR1 (UniProt P11362), reported phosphorylation enrichment = 0.532

// sequence MKTISYETLIA [DOCK10_Y1350] , assay FGFR1 (UniProt P11362), phosphorylation enrichment value: 0.472

GET /values?item= HILQLYRCREE [ALPK3_Y342_T338I] &system= FGFR1 (UniProt P11362) returns phosphorylation enrichment: 0.763

Item SGEKPYKCSEC [ZNF543_Y283] ; assay system FGFR1 (UniProt P11362); phosphorylation enrichment reported as 0.535

phosphorylation enrichment of FSSLGYPLPEG [ZSWIM4_Y87_P89L_YF] , assay on FGFR1 (UniProt P11362), is 0.413

The sequence MGIMLYGVDSR [PKD1_Y3143_V3138M] , tested on FGFR1 (UniProt P11362), showed phosphorylation enrichment of 0.449

Entry NPQKSYFICLY [WAS_Y83_R86C] ; assay system FGFR1 (UniProt P11362); phosphorylation enrichment recorded at 0.848

Lab note: sequence PHMQTYEVDHN [SDHB_Y61_L65H] tested on FGFR1 (UniProt P11362); recorded phosphorylation enrichment was 0.676

Record PSPTRYSLSPS [RANBP2_Y785] ; system FGFR1 (UniProt P11362); phosphorylation enrichment = 0.525

Sample TTGGFYSYGGG [KRT24_Y120_A115T] , system: FGFR1 (UniProt P11362). Its phosphorylation enrichment is 0.528

Item KMKGDYFRFLA [YWHAG_Y130_YF] ; assay system FGFR1 (UniProt P11362); phosphorylation enrichment reported as 5.05
